Measured values drawn from patent US20140107109A1 for this set.

# target.of.assay: Cathepsin D (Cat D) (Homo sapiens, UniProt P07339)
# Construct: Recombinant Cat D was expressed in CHO cells; made in house; host or cells: CHO cells
# Sequence (P07339 65-412, species assumed): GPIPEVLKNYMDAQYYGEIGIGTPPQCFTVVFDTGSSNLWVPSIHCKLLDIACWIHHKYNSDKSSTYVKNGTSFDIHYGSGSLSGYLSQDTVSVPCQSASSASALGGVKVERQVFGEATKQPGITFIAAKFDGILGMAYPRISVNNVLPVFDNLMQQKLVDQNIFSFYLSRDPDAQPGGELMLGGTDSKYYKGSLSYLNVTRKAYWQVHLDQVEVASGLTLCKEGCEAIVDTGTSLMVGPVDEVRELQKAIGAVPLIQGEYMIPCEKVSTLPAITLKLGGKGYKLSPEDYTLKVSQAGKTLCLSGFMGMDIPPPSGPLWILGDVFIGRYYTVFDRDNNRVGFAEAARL
# test.details: In vitro enzymatic Cathepsin D (Cat D) FRET assay
# Format: biochemical
# conditions.used: read-out: CatD IC50
pIC50: −log10 of the molar value.
outcome.measure: pIC50

Look over these answered cases.
**Query** Look at this compound and give its reported pIC50. `Cc1cc(Cl)cnc1C(=O)Nc1ccc(F)c([C@]2(CF)CS(=O)(=O)C3(CC3)C(N)=N2)c1`
**Result** 3.88

**Query** Look at this compound and give its reported pIC50. `CC1(C)C(N)=N[C@](CF)(c2cc(Nc3nccc4cc(Cl)cnc34)ccc2F)CS1(=O)=O`
**Result** 4.23

**Query** Look at this compound and give its reported pIC50. `CC1(C)C(N)=N[C@](C)(c2cc(NC(=O)c3nn(C(F)F)cc3Cl)ccc2F)CS1(=O)=O`
**Result** 3.95

(P) C[C@]1(c2cc(Nc3nccc4cc(C#N)cnc34)ccc2F)N=C(N)C2(CCC2)S(=O)(=O)C1F (stereo partly drawn)
(Q) COc1cnc2c(Nc3ccc(F)c([C@]4(C)CS(=O)(=O)C(C)(C)C(N)=N4)c3)ncnc2c1
(R) COc1cnc2c(Nc3cnc(F)c([C@]4(C)CS(=O)(=O)C(C)(C)C(N)=N4)c3)nccc2n1
(S) COc1ccc(C(=O)Nc2cnc(F)c([C@]3(C)CS(=O)(=O)C(C)(C)C(N)=N3)c2)nc1
**Query** Put the items in sequence by pIC50, from largest down. Please reply with the labels ordered as requested. Many thanks.
**Result** P, Q, R, S

(A) Cc1cc(OC(F)F)cnc1C(=O)Nc1ccc(F)c([C@]2(CF)CS(=O)(=O)C3(CCC3)C(N)=N2)c1
(B) CC1(C)C(N)=N[C@](C)(c2cc(Oc3cnccn3)ccc2F)CS1(=O)=O
(C) Cc1cc(OC(F)F)cnc1C(=O)Nc1ccc(F)c([C@]2(C)CS(=O)(=O)C3(CC(F)(F)C3)C(N)=N2)c1
**Query** Put the items in sequence by pIC50, from largest down. Please reply with the labels ordered as requested. Many thanks.
**Result** C, A, B

* * *

# target.of.assay: Cathepsin D (Cat D) (Homo sapiens)
# Construct: Recombinant Cat D was expressed in CHO cells; made in house; host or cells: CHO cells
# test.details: In vitro enzymatic Cathepsin D (Cat D) FRET assay
# Type: biochemical
# conditions.used: read-out: CatD IC50
outcome.measure: IC50 (µM)

Look over these answered cases.
**Query** Look at this compound and give its reported IC50. Cc1cc(Cl)cnc1C(=O)Nc1ccc(F)c([C@@]2(C)N=C(N)C(C)(C)S(=O)(=O)C2F)c1 (stereo partly drawn) [Example 331]
**Result** 188

**Query** Look at this compound and give its reported IC50. CC1(C)C(N)=N[C@](C)(c2cc(Oc3cc(C#N)ccn3)ccc2F)CS1(=O)=O [Example 280]
**Result** 395

**Query** Look at this compound and give its reported IC50. CC1(C)C(N)=N[C@](CF)(c2cc(Nc3ncc(F)c4cc(OCC5CC5)cnc34)ccc2F)CS1(=O)=O [Example 431]
**Result** 476

**Query** Look at this compound and give its reported IC50. CC#CCOc1cnc2c(Nc3ccc(F)c([C@]4(C)CS(=O)(=O)C(C)(C)C(N)=N4)c3)nccc2c1 [Example 254]
**Result** 354

**Query** Look at this compound and give its reported IC50. CC1(C)C(N)=N[C@](CF)(c2cc(NC(=O)c3cnc(C(F)F)cn3)ccc2F)CS1(=O)=O [Example 376]
**Result** 172

**Query** Look at this compound and give its reported IC50. CCOc1cnc2c(Nc3ccc(F)c([C@]4(CF)CS(=O)(=O)C(C)(C)C(N)=N4)c3)nccc2n1 [Example 237]
**Result** 661

(P) Cc1ccnc(Oc2ccc(F)c([C@]3(C)CS(=O)(=O)C(C)(C)C(N)=N3)c2)c1C#N [Example 310]
(Q) CC1(C)C(N)=N[C@](CF)(c2cc(NC(=O)c3ncc(Cl)nc3Cl)ccc2F)CS1(=O)=O [Example 380]
**Query** Identify the item whose IC50 is the smaller number: P or Q In your reply, give the label of the chosen option.
**Result** Q
(Q: 282 µM, P: 444 µM)

(A) CC1(C)C(N)=N[C@](C)(c2cc(NCc3c(Cl)cnn3CC(F)(F)F)ccc2F)CS1(=O)=O [Example 109]
(B) CC(C)COc1cnc2c(Nc3ccc(F)c([C@]4(CF)CS(=O)(=O)C(C)(C)C(N)=N4)c3)ncc(F)c2c1 [Example 436]
(C) CC1(C)C(N)=N[C@](C)(c2cc(C(=O)Nc3ccc(C#N)cc3O)ccc2F)CS1(=O)=O [Example 173]
(D) CCc1cc(Cl)cnc1C(=O)Nc1ccc(F)c([C@]2(C)CS(=O)(=O)C(C)(C)C(N)=N2)c1 [Example 196]
(E) Cc1nc2c(Nc3ccc(F)c([C@]4(C)CS(=O)(=O)CC(N)=N4)c3)nccc2s1 [Example 58]
**Query** Ordering: ascending IC50. Please reply with the labels ordered as requested. Many thanks.
**Result** A, B, C, D, E
(A: 12.2 µM, B: 61.6 µM, C: 104 µM, D: 200 µM, E: 304 µM)
